Dear all, I have gathered published IC50 values for Tyrosine-protein kinase ABL1 (Homo sapiens, UniProt P00519); the list follows.

Consider the reported IC50 for these compounds:
| Substance Smiles | IC50 |
| --- | --- |
| O=C(c1ccccc1F)c1c[nH]c2ncc(-c3cccnc3)cc12 | ≤ 10000 nM |
| Cc1ccccc1C(=O)c1c[nH]c2ncc(-c3cccnc3)cc12 | ≤ 10000 nM |
| CS(=O)(=O)c1n[nH]c2nc(Nc3ccc(-c4ccc(C(=O)O)cc4)cc3)nc(NC3CC3)c12 | ≤ 50 nM |
| Cn1cc(-c2cc(Oc3ccc(NC(=O)Nc4cnc(C(C)(C)C)nc4N4CCOCC4)c(F)c3)ccn2)cn1 | < 1000 nM |
| C=CC(=O)N[C@H]1CC[C@@H](n2nc(-c3ccc(Oc4ccccc4)cc3)c3c(N)ncnc32)CC1 | 32.3 nM |

(Q) Using the record for `CN(C)C(=O)C1CCN(c2ccc(Nc3nc(NC4CC4)c4c(S(C)(=O)=O)n[nH]c4n3)cc2)CC1` , state its measured IC50.
(A) ≤ 50 nM

(Q) Return IC50 (reported value) for this compound: `CS(=O)(=O)c1n[nH]c2nc(Nc3ccc(N4CCN(S(C)(=O)=O)CC4)cc3)nc(NC3CC3)c12`
(A) ≤ 10 nM

(Q) Look up IC50 of `Cc1ccc(C(=O)Nc2ccc(CN3CCN(C)CC3)c(C(F)(F)F)c2)cc1C#Cc1nc(C)n2ccnc(N)c12` and report it.
(A) ≤ 5 nM

(Q) Look up and state reported IC50 for `S=C(NCc1ccccn1)NCc1c[nH]c2ncccc12`
(A) ≤ 10000 nM

(Q) In one line, give reported IC50 of the entry `CNCCCCNc1nc(Nc2ccc(N3CCOCC3)cc2)nc2[nH]nc(SC)c12` .
(A) ≤ 50 nM
